Data credit: patent US9844550B2

Tested on: LNCaP prostate cancer cell line
Assay: Cell viability assay (LNCaP)
Format: cell-based
Conditions: Homo sapiens, 264 h; LNCaP cells, treated 11 days
Provide the recorded IC50 for the entries that follow.

-- ask # query: IC50 | item CC(C)CNC1CN(C(=O)c2cc(Cc3n[nH]c(=O)c4ccccc34)ccc2F)C1 | system: LNCaP prostate cancer cell line
-- reply > 1000 nM

-- ask Give the reported IC50 for COC[C@@H](C)NC1CN(C(=O)c2cc(Cc3n[nH]c(=O)c4ccccc34)ccc2F)C1 (system: LNCaP prostate cancer cell line).
-- reply > 1000 nM

-- ask Entry C#CCNCC1CN(C(=O)c2cc(Cc3n[nH]c(=O)c4ccccc34)ccc2F)C1 , system LNCaP prostate cancer cell line: what IC50 was measured?
-- reply > 1000 nM

-- ask Tell me reported IC50 for O=C(c1cc(Cc2n[nH]c(=O)c3ccccc23)ccc1F)N1CC(NC2CCCC2)C1 , tested with LNCaP prostate cancer cell line.
-- reply 50 to 300 nM

-- ask Form: Entry = CCCCNC1CN(C(=O)c2cc(Cc3n[nH]c(=O)c4ccccc34)ccc2F)C1 | System = LNCaP prostate cancer cell line | IC50 = ____
-- reply > 1000 nM

-- ask Give LNCaP prostate cancer cell line IC50 for CC(C)CNCC1CN(C(=O)c2cc(Cc3n[nH]c(=O)c4ccccc34)ccc2F)C1
-- reply > 1000 nM

-- ask Please tell me: IC50 of O=C(c1cc(Cc2n[nH]c(=O)c3ccccc23)ccc1F)N1CC[C@@H](Nc2ccc(C(F)(F)F)cn2)C1 , system LNCaP prostate cancer cell line?
-- reply 5 to 50 nM

-- ask Value wanted: IC50 (LNCaP prostate cancer cell line) of entry O=C(c1cc(Cc2n[nH]c(=O)c3ccccc23)ccc1F)N1CC(Nc2ccc(Cl)nn2)C1
-- reply 5 to 50 nM

-- ask Please provide the recorded IC50 for CC(C)NC1CN(C(=O)c2cc(Cc3n[nH]c(=O)c4ccccc34)ccc2F)C1 , tested on LNCaP prostate cancer cell line.
-- reply 50 to 300 nM

-- ask Item: O=C(c1cc(Cc2n[nH]c(=O)c3ccccc23)ccc1F)N1CC(NCC2CC2)C1 Test system: LNCaP prostate cancer cell line Read-out: IC50 Value: ?
-- reply 300 to 1000 nM

-- ask Test system LNCaP prostate cancer cell line; read-out IC50; what value for N#CC1(NC2CN(C(=O)c3cc(Cc4n[nH]c(=O)c5ccccc45)ccc3F)C2)CCC1 ?
-- reply 300 to 1000 nM

-- ask Item: O=C(c1cc(Cc2n[nH]c(=O)c3ccccc23)ccc1F)N1CC(NC2(C(F)(F)F)CC2)C1 Test system: LNCaP prostate cancer cell line Read-out: IC50 Value: ?
-- reply 50 to 300 nM
